Target: IRAK4 (Homo sapiens)
Construct: Degradation of IRAK4 in OCI-LY10 was quantitatively measured using Meso Scale Discovery technology; endogenous in cells; host or cells: OCI-LY10
Sequence (Q9NWZ3 1-460): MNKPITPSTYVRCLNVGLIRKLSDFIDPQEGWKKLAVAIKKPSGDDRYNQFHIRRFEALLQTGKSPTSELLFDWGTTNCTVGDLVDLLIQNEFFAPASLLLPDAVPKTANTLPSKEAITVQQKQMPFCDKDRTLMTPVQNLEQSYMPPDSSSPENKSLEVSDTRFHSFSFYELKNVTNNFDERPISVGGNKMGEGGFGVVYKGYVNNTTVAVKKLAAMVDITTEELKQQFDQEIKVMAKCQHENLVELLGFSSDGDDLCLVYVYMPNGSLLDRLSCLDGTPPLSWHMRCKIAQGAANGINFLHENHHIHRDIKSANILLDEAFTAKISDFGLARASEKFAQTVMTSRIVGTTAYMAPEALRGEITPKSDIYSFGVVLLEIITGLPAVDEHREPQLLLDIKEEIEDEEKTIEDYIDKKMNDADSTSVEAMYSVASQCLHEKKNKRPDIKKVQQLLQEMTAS
Assay: IRAK4 MSD Degradation in OCI-LY10
Type: cell-based
Conditions: OCI-LY10 cells, 4 hrs incubation, MSD; read-out: IRAK4 degradation in OCI-LY10 at 4 hrs: DC50
measured_endpoint: DC50

These recorded examples may help you get a feel for the data.
CN(Cc1ccc(-n2cc(NC(=O)c3cnn4cccnc34)c(C(F)F)n2)cc1)C1CCN(c2cccc3c2n(C)c(=O)n3C2CCC(=O)NC2=O)CC1 (centres unmarked) [I-314]	> 200 nM
Cn1c(=O)n(C2CCC(=O)NC2=O)c2cccc(N3CC(F)(CN4CCN(C[C@H]5CC[C@H](n6cc(NC(=O)c7cnn8ccc(N9C[C@H]%10C[C@@H]9CO%10)nc78)c(C(F)F)n6)CC5)CC4)C3)c21 (some centres unmarked) [I-678]	> 200 nM
Cn1c(=O)n(C2CCC(=O)NC2=O)c2cccc(C#CCN3CCN(C[C@H]4CC[C@H](n5cc(NC(=O)c6cccc(C#N)n6)c(C(F)F)n5)CC4)CC3)c21 (some centres unmarked) [I-261]	> 200 nM
COc1cc2nn([C@H]3CC[C@H](CN4CCC5(CC4)CCN(c4ccc(Cl)c(N6CCC(=O)NC6=O)c4)CC5)CC3)cc2cc1NC(=O)c1cncc(C#N)c1 [I-254]	> 200 nM

Request: Can you look up the measured DC50 of Cn1c(=O)n(C2CCC(=O)NC2=O)c2cccc(C#CCOC3CCN(C[C@H]4CC[C@H](n5cc(NC(=O)c6cnn7ccc(N8CCS(=O)(=O)CC8)nc67)c(C(F)F)n5)CC4)CC3)c21 (some centres unmarked) [I-304] for me?
Response: > 200 nM

====

Target: IRAK4 (Homo sapiens, UniProt Q9NWZ3)
Construct: Degradation of IRAK4 in OCI-LY10 was quantitatively measured using Meso Scale Discovery technology; endogenous in cells; host or cells: OCI-LY10
Sequence (Q9NWZ3 1-460): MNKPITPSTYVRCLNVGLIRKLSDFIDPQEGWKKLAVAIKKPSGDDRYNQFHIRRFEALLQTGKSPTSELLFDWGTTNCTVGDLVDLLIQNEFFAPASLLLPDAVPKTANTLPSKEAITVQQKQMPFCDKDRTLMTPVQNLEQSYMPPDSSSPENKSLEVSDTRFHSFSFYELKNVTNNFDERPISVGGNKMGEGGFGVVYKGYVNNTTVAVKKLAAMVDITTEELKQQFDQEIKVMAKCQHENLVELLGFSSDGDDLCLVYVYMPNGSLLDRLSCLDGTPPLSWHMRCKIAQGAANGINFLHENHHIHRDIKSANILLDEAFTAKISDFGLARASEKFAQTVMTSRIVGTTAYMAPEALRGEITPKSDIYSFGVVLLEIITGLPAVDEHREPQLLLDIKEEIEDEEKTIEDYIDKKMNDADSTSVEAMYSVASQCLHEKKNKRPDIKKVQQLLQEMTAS
Assay: IRAK4 MSD Degradation in OCI-LY10
Assay type: cell-based
Settings: OCI-LY10 cells, 24 hrs incubation, MSD; read-out: IRAK4 degradation in OCI-LY10 at 24 hrs: DC50
Each entry below carries its reported DC50.

Cn1c(=O)n(C2CCC(=O)NC2=O)c2cccc(C3CN([C@@H]4CCN(C[C@H]5CC[C@H](n6cc(NC(=O)c7cnn8ccc(N9C[C@H]%10C[C@@H]9CO%10)nc78)c(C(F)F)n6)CC5)C[C@@H]4F)C3)c21 (stereo partly shown)	< 10 nM
COc1cc2nn([C@H]3CC[C@H](CN4CCC5(CC4)CCN(c4cccc6c4n(C)c(=O)n6C4CCC(=O)NC4=O)CC5)CC3)cc2cc1NC(=O)c1cncc(C(C)(C)C#N)c1 (stereo partly shown)	> 200 nM
Cn1c(=O)n(C2CCC(=O)NC2=O)c2ccc(C3CN(C4CCN([C@H]5CC[C@H](n6cc(NC(=O)c7cnn8ccc(N9C[C@H]%10C[C@@H]9CO%10)nc78)c(C(F)F)n6)CC5)CC4(F)F)C3)c(F)c21 (stereo partly shown)	> 200 nM
Cn1c(=O)n(C2CCC(=O)NC2=O)c2cccc(N3CCC(N(CC(F)F)C[C@H]4CC[C@H](n5cc(NC(=O)c6cnn7cccnc67)c(C(F)F)n5)CC4)CC3)c21 (stereo partly shown)	> 200 nM
Cn1c(=O)n(C2CCC(=O)NC2=O)c2cccc([C@H]3C[C@H](CN4CCN(C[C@H]5CC[C@H](n6cc(NC(=O)c7cnn8ccc(N9C[C@H]%10C[C@@H]9CO%10)nc78)c(C(F)F)n6)CC5)CC4)C3)c21 (stereo partly shown)	> 200 nM
Cn1c(=O)n(C2CCC(=O)NC2=O)c2cccc(C#CCO[C@H]3CCN(C[C@H]4CC[C@H](n5cc(NC(=O)c6cnn7ccc(N8C[C@H]9C[C@@H]8CO9)nc67)c(C(F)F)n5)CC4)C[C@@H]3F)c21 (stereo partly shown)	> 200 nM

Request: Can you look up the measured DC50 of Cc1nn([C@H]2CC[C@H](CN3CCN(c4cccc5c4n(C)c(=O)n5C4CCC(=O)NC4=O)CC3)CC2)cc1NC(=O)c1cnn2cc(N(C)C)cnc12 (stereo partly shown) for me?
Response: > 200 nM

Request: Okay, and C[C@H]1CN(C[C@H]2CC[C@H](n3cc(NC(=O)c4cnn5ccc(N6C[C@H]7C[C@@H]6CO7)nc45)c(C(F)F)n3)CC2)CC[C@@H]1OCC#Cc1cccc2c1n(C1CC1)c(=O)n2C1CCC(=O)NC1=O (stereo partly shown) ?
Response: > 200 nM

Request: Okay, and Cn1c(=O)n(C2CCC(=O)NC2=O)c2cccc(N3CC(F)(CN4CCN(C[C@H]5CC[C@H](n6cc(NC(=O)c7cnn8ccc(N9C[C@H]%10C[C@@H]9CO%10)nc78)c(C(F)F)n6)CC5)CC4)C3)c21 (stereo partly shown) ?
Response: < 10 nM

Request: Okay, and Cn1c(=O)n(C2CCC(=O)NC2=O)c2cccc(C#CCN3CCN(C[C@H]4CC[C@H](n5cc(NC(=O)c6cnn7ccc(N8CCN(C(F)(F)F)CC8)nc67)c(C(F)F)n5)CC4)CC3)c21 (stereo partly shown) ?
Response: > 200 nM

Source of measurements: patent US12091411B2
